Tested on: KM12 colon
test details: NCI tumour cell line growth inhibition, 48 h
experimental readout: GI50

- compound: "NC(=O)C1(N2CCCCC2)CCN(CCCC(=O)c2ccc(F)cc2)CC1"
  experimental readout: "GI50"
  result: "1390 nM"

GI50 on KM12 colon for C=C1CC2(OC1=O)C(=O)N(CCCN1C(=O)C3(CC(=C)C(=O)O3)c3ccccc31)c1ccccc12 (stereo unspecified) is 2720 nM

GI50 on KM12 colon for `CC(=O)[O-].CC(=O)[O-].CC(=O)[O-].CC(=O)[O-].[Mo+2].[Mo+2]` is > 100000 nM

GI50 on KM12 colon for `CC1(C)N=C(N)N=C(N)N1c1ccc(OCC(=O)Nc2ccccc2)c(Cl)c1` is 842 nM

GI50 on KM12 colon for `CN(C)Cc1c[nH]c2c(NCCN)c3c(c(NCCN)c12)C(=O)c1ccccc1C3=O` is 1590 nM

GI50 on KM12 colon for `Cn1c2ccccc2c2c(=O)c3ccccc3[nH]c21` is 22100 nM
